Cited source for all entries: patent US7781421B2

Target: GABAA receptor ([35S]-TBPS binding site, rat brain cortical membranes)
Assay: Displacement of [35S]-TBPS binding, rat brain cortical membranes
Conditions: 5 μM GABA, 2 nM [35S]-TBPS; ± standard error of the means
Method: Rat brain cortical membranes were prepared with minor modifications of the method previously reported. […] Where Rmax is the maximal effect, [conc] is steroid concentration, IC50 is the half-maximal inhibitor concentration and n is the Hill coefficient. Each data point was determined in triplicate and 2-3 full concentration-response curves were generated for each steroid.
Measured pIC50 by item
Schema: pIC50 number; meaning minus log10 of the concentration expressed in molar units.

Consider the following illustrative entries.
Q. Send back GABAA receptor ([35S]-TBPS binding site, rat brain cortical membranes) pIC50 of C[C@]12CC[C@@H](O)C[C@@H]1CCC1C3CC[C@@H]4/C(=C/C#N)CCC[C@]34CCC12 (stereo partly drawn) [Compound 63] only.
A. 7.96

Q. Send back GABAA receptor ([35S]-TBPS binding site, rat brain cortical membranes) pIC50 of CC12CCC(O)CC1CCC1C2CCC23C=CC(=O)CC2CCC13 (stereo not drawn) [Compound 30b] only.
A. 5.32

Next up:
Q. Send back GABAA receptor ([35S]-TBPS binding site, rat brain cortical membranes) pIC50 of CC12CCC(O)CC1CCC1C2CCC23CC(=O)C=CC2CCC13 (stereo not drawn) [Compound 21c] only.
A. 6.61
